# MEASUREMENT DESCRIPTION: NCI Yeast Anticancer Drug Screen. Data for the cln2 rad14 strain (AID 165);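 also: 0% = growth equal to vehicle treated cultures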
# SETUP CONDITIONS: S. cerevisiae cln2 rad14 strain, at 5.0 µM (retest, dose inferred, filed as 0.5)
This is part of a sample that, as a whole, favours compounds with a hit. Of some 79,000 tested, about 15% had one in any assay. Calls of active or inactive are those of the source. Rule as the data show it: active = growth inhibition above about 70%; inactive = the rest.
Output constraint: value belongs to yes (1) (active), no (0) (inactive)

Would you please look over these solved cases?
>  <COMPOUND>
Cc1ccc(C)c(C(=N)c2ccccc2Cc2ccccc2)c1

>  <ASSIGNED LABEL>
no (0)

$$$$
>  <COMPOUND>
CCOC(=O)Nc1ccc(C)c(NC(=O)OCC)c1

>  <ASSIGNED LABEL>
no (0)

$$$$
>  <COMPOUND>
CC(=O)O/N=C1C=C/C(=C(/C#N)c2ccccc2)C=C/1C

>  <ASSIGNED LABEL>
no (0)

$$$$
>  <COMPOUND>
CCCN=Cc1cc(Cc2ccc(O)c(C=NCCC)c2)ccc1O

>  <ASSIGNED LABEL>
no (0)

$$$$
>  <COMPOUND>
O=C1c2ccccc2-c2ccc(N=Cc3ccccc3)cc21

>  <ASSIGNED LABEL>
no (0)

$$$$

Write down the call the test reported for this compound. Item: `Nc1ccc(/C=C/c2ccc3cccnc3c2)cc1`
no (0)

Write down the call the test reported for this compound. Item: CC(C(=O)N1C(=O)N(C(=O)C(C)C(O)c2ccccc2)C2CCCCC21)C(O)c1ccccc1 (stereo unspecified)
yes (1)

Write down the call the test reported for this compound. Item: `C/C(=N/NC(=S)Nc1ccccc1C)c1ccccn1`
no (0)

Write down the call the test reported for this compound. Item: `O=c1cccccc1[O-].O=c1cccccc1[O-].O=c1cccccc1[O-].[Eu+3]`
no (0)

Write down the call the test reported for this compound. Item: `CCCCOc1ccc2nc(C)cc(N=[N+]=[N-])c2c1`
no (0)

Write down the call the test reported for this compound. Item: `O=[N+]([O-])c1ccc(S(=O)(=O)Cc2ccccc2)c([N+](=O)[O-])c1`
no (0)

###

# MEASUREMENT DESCRIPTION: NCI Yeast Anticancer Drug Screen. Data for the mec2-1 strain (AID 157)
# SETUP CONDITIONS: S. cerevisiae mec2-1 strain, at 3.7 µM
Compounds without any hit were thinned out: in the full panel of roughly 79,000, 15% have a hit. The source made the active and inactive calls. No stated cut-off is given here; in the data, active means growth inhibition above about 70%; inactive means the rest.
Output constraint: value belongs to active, inactive

>  <COMPOUND>
c1cc(-c2sc(-c3ccncc3)c(-c3ccncc3)c2-c2ccncc2)ccn1

>  <ASSIGNED LABEL>
inactive

$$$$

Write down the call the test reported for this compound. Item: CC1C(c2ccccc2)SC(=N)N1C (stereo not drawn)
inactive

Write down the call the test reported for this compound. Item: COc1cc(C2C3=C(COC3=O)Oc3cc4c(cc32)OCO4)cc(OC)c1O (stereo not drawn)
inactive

Write down the call the test reported for this compound. Item: `O=C(c1cc(=O)c2ccc(O)cc2o1)c1ccc(Cl)cc1Cl`
inactive

Write down the call the test reported for this compound. Item: `CNCC(C)CNC`
inactive

Write down the call the test reported for this compound. Item: `Nc1cc2ccccc2cc1N`
inactive

Write down the call the test reported for this compound. Item: `O=C1C[C@H]2[C@H](c3ccc(Br)cc3)[C@H]3C(=O)c4ccccc4NC(=O)[C@@H]3[C@@]2(O)c2ccccc2N1`
inactive

###

# MEASUREMENT DESCRIPTION: NCI Yeast Anticancer Drug Screen. Data for the wt1 strain (AID 149);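 also: 0% = growth of vehicle-treated wt1 cultures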
# SETUP CONDITIONS: S. cerevisiae wt1 strain (SPY 50644) growth inhibition; at 11.0 µM; stronger effect = higher value
Compounds without any hit were thinned out: in the full panel of roughly 79,000, 15% have a hit.
MEASURED PROPERTY: growth inhibition (%)
Unit % implied. Number only.

# count of solved cases: 5
>  <MOLECULE>
O=C(C#Cc1ccccc1)/C=C/c1ccccc1

>  <growth inhibition / %>
10

$$$$
>  <MOLECULE>
Cc1c2c(nc3ccccc13)C(=O)c1cccnc1C2=O

>  <growth inhibition / %>
6

$$$$
>  <MOLECULE>
O=C1C[C@H]2[C@H](c3ccc(Br)cc3)[C@H]3C(=O)c4ccccc4NC(=O)[C@@H]3[C@@]2(O)c2ccccc2N1

>  <growth inhibition / %>
11

$$$$
>  <MOLECULE>
N#CC1OB(O)c2ccccc21 (stereo unspecified)

>  <growth inhibition / %>
-5

$$$$
>  <MOLECULE>
CC1(C)C(O)OC(O)C1(C)C (stereo unspecified)

>  <growth inhibition / %>
4

$$$$

Value of measured growth inhibition for the entry CC(CC/C(=N/O)c1ccccc1)(CC/C(=N\O)c1ccccc1)[N+](=O)[O-] (stereo unspecified) : -7

###

# MEASUREMENT DESCRIPTION: NCI Yeast Anticancer Drug Screen. Data for the rad18 strain (AID 177)
# SETUP CONDITIONS: S. cerevisiae rad18 mutant growth inhibition; at 100.0 µM
Compounds without any hit were thinned out: in the full panel of roughly 79,000, 15% have a hit. Calls of active or inactive are those of the source. Rule as the data show it: active = growth inhibition above about 70%; inactive = the rest.
Output constraint: value belongs to active, inactive

Would you please look over these solved cases?
>  <COMPOUND>
CNCC(C)CNC

>  <ASSIGNED LABEL>
inactive

$$$$
>  <COMPOUND>
CC(=O)N1C=Cc2c(c(C)c3c([nH]c4ccccc43)c2C)C1

>  <ASSIGNED LABEL>
active

$$$$
>  <COMPOUND>
NC(=S)N1N=C2c3ccccc3CC[C@@H]2[C@@H]1c1ccccc1

>  <ASSIGNED LABEL>
inactive

$$$$
>  <COMPOUND>
CCOC(=O)/C(=C/c1cccc(Cl)c1)N(CC)CC

>  <ASSIGNED LABEL>
active

$$$$
>  <COMPOUND>
CC(C)(N=Nc1ccc(Cl)cc1)[N+](=O)[O-]

>  <ASSIGNED LABEL>
active

$$$$
>  <COMPOUND>
CC1=CN2C(c3ccccc3)=NON(c3ccc(C)cn3)C2C=C1 (stereo unspecified)

>  <ASSIGNED LABEL>
inactive

$$$$
>  <COMPOUND>
COc1ccc(C2CC(C)(N3CCCC3)Oc3cc4c(cc32)OCO4)cc1 (stereo unspecified)

>  <ASSIGNED LABEL>
active

$$$$
>  <COMPOUND>
O=c1cccccc1[O-].O=c1cccccc1[O-].O=c1cccccc1[O-].[Eu+3]

>  <ASSIGNED LABEL>
active

$$$$

Write down the call the test reported for this compound. Item: `O=C(O)c1c2ccc(Cl)cc2nc2[nH]c(=O)[nH]c(=O)c12`
inactive

Write down the call the test reported for this compound. Item: `OC(c1ccccc1)(c1ccccc1)c1nccc2ccccc12`
inactive

Write down the call the test reported for this compound. Item: `NNc1ccccc1-c1nc2ccccc2[nH]1`
inactive

Write down the call the test reported for this compound. Item: `O=C1C(=O)c2cccc([N+](=O)[O-])c2-c2ccccc21`
active

Write down the call the test reported for this compound. Item: `COC(=O)C1=C(C(=O)OC)CC(n2nnc(C(=O)OC)c2C(=O)OC)=CC1`
inactive

Write down the call the test reported for this compound. Item: `Cc1ccc(S(=O)(=O)Nc2cccc3cccnc23)cc1`
active

Write down the call the test reported for this compound. Item: `O=C1C=C(NCCc2cc(Br)c(O)c(Br)c2)C(=O)c2ncccc21`
active

###

# MEASUREMENT DESCRIPTION: NCI Yeast Anticancer Drug Screen. Data for the rad14 strain (AID 159);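 also: 0% = growth of vehicle-treated control cultures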
# SETUP CONDITIONS: S. cerevisiae rad14 strain growth inhibition; at 33.0 µM
Compounds without any hit were thinned out: in the full panel of roughly 79,000, 15% have a hit. Calls of active or inactive are those of the source. Rule as the data show it: active = growth inhibition above about 70%; inactive = the rest.
Output constraint: value belongs to 1 (yes) for active, 0 (no) for inactive

Would you please look over these solved cases?
>  <MOLECULE>
COC(=O)C(Cl)(Cl)N=Nc1c(Cl)cc(Cl)c(C)c1Cl

>  <ASSIGNED LABEL>
1 (yes)

$$$$
>  <MOLECULE>
CSc1nc(-c2ccccc2)nc(=[N+]2CCOCC2)s1

>  <ASSIGNED LABEL>
1 (yes)

$$$$
>  <MOLECULE>
CCOC(=O)/C(=C\c1cccc(C)c1)C(C)=O

>  <ASSIGNED LABEL>
1 (yes)

$$$$
>  <MOLECULE>
O=C(CCCN1CCC(Nc2ccc(F)cc2)(c2nnnn2C2CCCCC2)CC1)c1ccc(F)cc1

>  <ASSIGNED LABEL>
0 (no)

$$$$
>  <MOLECULE>
COc1ccc2cc3c4cc5c(cc4cc[n+]3cc2c1OC)OCO5

>  <ASSIGNED LABEL>
1 (yes)

$$$$

Write down the call the test reported for this molecule. Item: OC(Cc1cccc2ccccc12)CN1CCC(c2ccccc2)CC1 (stereo not drawn)
1 (yes)

Write down the call the test reported for this molecule. Item: `CCCCCc1c(CCCC)c(=O)[nH]c2cc(CNCC(OC)OC)ccc12`
1 (yes)

Write down the call the test reported for this molecule. Item: `COC(=O)/C(C#N)=C\NC(=S)C(N)=S`
1 (yes)

Write down the call the test reported for this molecule. Item: `CCN(CC)CCC(=O)Nc1ccc2sc3ccccc3c(=O)c2n1`
0 (no)

Write down the call the test reported for this molecule. Item: `O=C1c2cccc3cccc(c23)C(=O)N1O`
1 (yes)

Write down the call the test reported for this molecule. Item: `O=C1c2ccccc2-c2ccc(N=Cc3ccccc3)cc21`
0 (no)

Data provenance: PubChem BioAssay (NCI)
